Target: recombinant human CD38 Protein (Homo sapiens, UniProt P28907)
Construct: purchased R&D System
Sequence (P28907 whole entry): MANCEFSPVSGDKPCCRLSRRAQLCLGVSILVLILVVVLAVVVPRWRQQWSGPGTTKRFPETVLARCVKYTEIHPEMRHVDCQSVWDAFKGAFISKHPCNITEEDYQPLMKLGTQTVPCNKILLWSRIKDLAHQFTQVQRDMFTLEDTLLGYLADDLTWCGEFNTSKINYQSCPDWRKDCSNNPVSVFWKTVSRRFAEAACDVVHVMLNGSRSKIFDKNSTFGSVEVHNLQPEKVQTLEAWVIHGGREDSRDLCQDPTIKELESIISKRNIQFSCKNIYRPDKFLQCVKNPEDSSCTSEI
Experiment: Fluorescence-based NAD+ cyclase activity assay with human recombinant CD38 protein (Assay 2)
Type: biochemical
Details: read-out: Assay 2 Arithmetic mean IC50
pIC50: −log10 of the molar value.
MEASURED_ENDPOINT: pIC50

O=C(Nc1cc(F)nc(F)c1)c1cccc(-n2ccnc2)n1; 6.00 to 7.29
COc1cc(C(=O)Nc2ccnc(C(F)(F)F)c2)nc(-n2ccnc2)c1; 6.00 to 7.29
COCCOc1cc(C(=O)Nc2ccnc(C(F)(F)F)c2)nc(-n2ccnc2)c1; 6.00 to 7.29

Requested read-out: pIC50. Entry: O=C(Nc1ccnc(C(F)(F)F)c1)c1cc(OC2CC2)cc(-n2ccnc2)n1
6.00 to 7.29

Thanks! And O=C(Nc1ccnc(C(F)(F)F)c1)c1cc(OCc2ccccc2)cc(-n2ccnc2)n1 ?
6.00 to 7.29

Thanks! And Cc1ccc(NC(=O)c2cccc(-n3ccnc3)n2)cn1 ?
5.00 to 6.00

Thanks! And Cc1cc(NC(=O)c2cccc(-n3ccnc3)n2)ccn1 ?
6.00 to 7.29

Thanks! And Nc1cc(C(=O)Nc2cccnc2)nc(-n2ccnc2)c1 ?
6.00 to 7.29

* * *

Target: CD38 NAD+ hydrolase activity in NH7-dCas9 cells (Jurkat clone) (Homo sapiens)
Construct: The assay utilized CD38 expressing NH7-dCas9 cells (Jurkat clone)
Test: Fluorescence-based NAD+ hydrolase activity assay with human T cell line NH7-dCas9 cells-Jurkat clone (Assay 1)
Conditions: read-out: Assay 1 Arithmetic mean IC50
MEASURED_ENDPOINT: IC50

Examples from the recorded data:
NC(=O)c1ccc(NC(=O)c2cccc(-n3ccnc3)n2)cn1; < 1 nM
CNC(=O)c1ccc(NC(=O)c2cc(C)cc(-n3ccnc3)n2)cn1; < 1 nM
Cc1cc(NC(=O)c2cccc(-n3ccnc3)n2)cc(C#N)n1; < 1 nM
Nc1cc(C(=O)Nc2cccnc2)nc(-n2ccnc2)c1; < 1 nM

Requested read-out: IC50. Entry: COc1ccc(C(=O)Nc2cccnc2)nc1-n1ccnc1
51 to 1000 nM

Thanks! And O=C(Nc1ccc(F)nc1)c1cccc(-n2ccnc2)n1 ?
1 to 50 nM

Thanks! And Cc1cc(C(=O)Nc2cccnc2)nc(-n2ccnc2)n1 ?
< 1 nM

Thanks! And Cc1cncn1-c1cccc(C(=O)Nc2cccnc2)n1 ?
51 to 1000 nM

Thanks! And COc1ccc(-n2ccnc2)nc1C(=O)Nc1cccnc1 ?
1 to 50 nM

Thanks! And COc1cc(C(=O)Nc2ccnc(C(F)(F)F)c2)nc(-n2ccnc2)c1 ?
< 1 nM

Thanks! And CNC(=O)c1ccc(NC(=O)c2cccc(-n3ccnc3)n2)cn1 ?
< 1 nM

Thanks! And COc1cc(C(=O)Nc2cccnc2)nc(-n2ccnc2)c1 ?
1 to 50 nM

* * *

Target: recombinant mouse CD38 Protein (Mus musculus, UniProt P56528)
Construct: purchased R&D System
Sequence (P56528 whole entry): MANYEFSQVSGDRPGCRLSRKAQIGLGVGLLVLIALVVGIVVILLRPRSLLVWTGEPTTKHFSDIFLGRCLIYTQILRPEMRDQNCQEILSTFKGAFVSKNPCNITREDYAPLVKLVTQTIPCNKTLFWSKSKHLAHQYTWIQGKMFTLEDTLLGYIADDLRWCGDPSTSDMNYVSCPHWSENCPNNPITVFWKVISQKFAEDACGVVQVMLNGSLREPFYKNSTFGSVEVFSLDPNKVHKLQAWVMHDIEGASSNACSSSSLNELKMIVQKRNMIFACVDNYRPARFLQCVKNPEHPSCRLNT
Test: Fluorescence-based NAD+ hydrolase activity assay with mouse recombinant CD38 protein (Assay 5)
Assay type: biochemical
Settings: read-out: Assay 5 Arithmetic mean IC50
pIC50: −log10 of the molar value.
MEASURED_ENDPOINT: pIC50

Examples from the recorded data:
O=C(Nc1cccnc1)c1cccc(-n2ccnc2)n1; 7.30 to 9.00
COc1cc(C(=O)Nc2ccnc(C(F)(F)F)c2)nc(-n2ccnc2)n1; > 9.00
CNC(=O)c1ccc(NC(=O)c2cc(C)cc(-n3ccnc3)n2)cn1; > 9.00
COc1cc(C(=O)Nc2ccnc(C(F)(F)F)c2)nc(-n2ccnc2)c1; > 9.00
Cn1cncc1-c1cccc(C(=O)Nc2cccnc2)n1; 7.30 to 9.00

Requested read-out: pIC50. Entry: COc1ccc(C(=O)Nc2cccnc2)nc1-n1ccnc1
7.30 to 9.00

Thanks! And Cc1cc(C(=O)Nc2ccncc2)nc(-c2nccn2C)c1 ?
> 9.00

Thanks! And O=C(Nc1cccnc1)c1nc(-n2ccnc2)ccc1F ?
7.30 to 9.00

Thanks! And Cc1ccc(-n2ccnc2)nc1C(=O)Nc1cccnc1 ?
7.30 to 9.00

Thanks! And Nc1ccc(-n2ccnc2)nc1C(=O)Nc1ccncc1 ?
> 9.00
